# System: barnyardgrass (Echinochloa crus-galli, ECHCG)
# PROCEDURE_DETAILS: Post-emerge test, greenhouse herbicide activity screening
# Format: in vivo
# CONDITIONS: 250 g ai/ha; phytotoxicity rating 0-100 (0 no damage, 100 complete death), 14 days after application
Provide the reported Post-emerge Herbicidal Activity ECHCG of each item.
Note: the reply should be a number with no unit written.

Item: COc1c(Cl)cc(F)c(-n2c(=O)cc(C(F)(F)F)n(C)c2=O)c1NC(=O)C=C(C)C | Post-emerge Herbicidal Activity ECHCG: 0

Item: COc1c(Cl)cc(F)c(-n2c(=O)cc(C(F)(F)F)n(C)c2=O)c1NC(=O)c1ccc(C(C)(C)C)cc1 | Post-emerge Herbicidal Activity ECHCG: 0

Item: CCCc1ccc(C(=O)N(C(=O)c2ccc(CCC)cc2)c2c(OC)c(Cl)cc(F)c2-n2c(=O)cc(C(F)(F)F)n(C)c2=O)cc1 | Post-emerge Herbicidal Activity ECHCG: 20

Item: COc1c(Cl)cc(F)c(-n2c(=O)cc(C(F)(F)F)n(C)c2=O)c1NS(=O)(=O)c1ccc(C)cc1 | Post-emerge Herbicidal Activity ECHCG: 0

###

# Test system: upland rice (Oryza sp., var. Tebonnet, RICE)
# PROCEDURE_DETAILS: Pre-emerge test, crop safety
# Type: in vivo
# CONDITIONS: 250 g ai/ha; rated 14 days after application; 0 = no damage, 100 = complete death
Provide the reported Pre-emerge phytotoxicity rating (0-100), crop damage, RICE of each item.
Note: the reply should be a number with no unit written.

Item: Cn1c(C(F)(F)F)cc(=O)n(-c2c(F)cc(Cl)c(OCC#N)c2NC(=O)CCc2ccccc2)c1=O [2-87] | Pre-emerge phytotoxicity rating (0-100), crop damage, RICE: 90

Item: COc1c(Cl)cc(F)c(-n2c(=O)cc(C(F)(F)F)n(C)c2=O)c1N(C(=O)c1ccc(C(F)(F)F)cc1)C(=O)c1ccc(C(F)(F)F)cc1 [2-34] | Pre-emerge phytotoxicity rating (0-100), crop damage, RICE: 90

Item: COc1c(Cl)cc(F)c(-n2c(=O)cc(C(F)(F)F)n(C)c2=O)c1NC(=O)C=Cc1ccccc1 [2-78] | Pre-emerge phytotoxicity rating (0-100), crop damage, RICE: 95

###

# System: field corn (Zea mays L., var. Dekalb 535, CORN)
# PROCEDURE_DETAILS: Post-emerge test, crop safety
# Type: in vivo
# CONDITIONS: Rate 63 g ai/ha; rating scale 0-100 (0 no damage, 100 complete death); 14 days after application
Please use yes (1) whenever Post-emerge phytotoxicity rating CORN (crop damage) is not below 10, and no (0) whenever it is.

IN: Post-emerge phytotoxicity rating CORN (crop damage) >= 10 for CCOC(=O)C(Cl)Cc1c(C)c(Cl)cc(F)c1-n1c(=O)cc(C(F)(F)F)n(C)c1=O (stereo not shown) ?
OUT: no (0)

IN: Post-emerge phytotoxicity rating CORN (crop damage) >= 10 for COCCOC(=O)C(C)(Cl)Cc1c(OC)c(Cl)cc(F)c1-n1c(=O)cc(C(F)(F)F)n(C)c1=O (stereo not shown) ?
OUT: yes (1)

IN: Post-emerge phytotoxicity rating CORN (crop damage) >= 10 for CCOCCOC(=O)C(Cl)Cc1c(OC)c(Cl)cc(F)c1-n1c(=O)cc(C(F)(F)F)n(C)c1=O (stereo not shown) ?
OUT: yes (1)

IN: Post-emerge phytotoxicity rating CORN (crop damage) >= 10 for COc1c(Cl)cc(F)c(-n2c(=O)cc(C(F)(F)F)n(C)c2=O)c1CC(C)(Cl)C(=O)OCC(C)C (stereo not shown) ?
OUT: yes (1)

IN: Post-emerge phytotoxicity rating CORN (crop damage) >= 10 for CCOC(=O)C(Cl)Cc1cc(Cl)cc(F)c1-n1nc(C)n(C(F)F)c1=O (stereo not shown) ?
OUT: no (0)

IN: Post-emerge phytotoxicity rating CORN (crop damage) >= 10 for CCCOC(=O)C(C)(Cl)Cc1c(OC)c(Cl)cc(F)c1-n1c(=O)cc(C(F)(F)F)n(C)c1=O (stereo not shown) ?
OUT: yes (1)

###

# Tested on: redroot pigweed (Amaranthus retroflexus, AMARE)
# PROCEDURE_DETAILS: Pre-emerge test, greenhouse herbicide activity screening
# Format: in vivo
# CONDITIONS: 63 g ai/ha; rating scale 0-100, 14 days after application
# Method: A standard greenhouse herbicide activity screening system was used to evaluate the herbicidal efficacy and crop safety of these test compounds. […] At 14 days after application of the test materials, phytotoxicity ratings were recorded. […]
RECORDED_METRIC: Pre-emerge herbicidal activity, phytotoxicity rating AMARE

Item: CCOC(=O)C(Cl)Cc1c(OC)c(Cl)cc(F)c1-n1c(=O)cc(C(F)(F)F)n(C)c1=O (single isomer, unassigned) [Compound 14-4] | Pre-emerge herbicidal activity, phytotoxicity rating AMARE: 90

Item: CCCCCOC(=O)C(C)(Cl)Cc1c(OC)c(Cl)cc(F)c1-n1c(=O)cc(C(F)(F)F)n(C)c1=O (centres unmarked) [14-37] | Pre-emerge herbicidal activity, phytotoxicity rating AMARE: 100

Item: CCOC(=O)C(Cl)Cc1c(OC)c(Cl)cc(F)c1-n1c(=O)cc(C(F)(F)F)n(C)c1=O (single isomer, unassigned) [Compound 14-5] | Pre-emerge herbicidal activity, phytotoxicity rating AMARE: 70

Item: COc1c(Cl)cc(F)c(N2C(=O)C3CCCCN3C2=S)c1NC(=O)c1ccc2ccccc2c1 (centres unmarked) [12-5] | Pre-emerge herbicidal activity, phytotoxicity rating AMARE: 30

Item: COc1c(Cl)cc(F)c(-n2c(=O)cc(C(F)(F)F)n(C)c2=O)c1CC(Cl)C(=O)OCC(F)(F)C(F)(F)C(F)(F)F (single isomer, unassigned) [14-23] | Pre-emerge herbicidal activity, phytotoxicity rating AMARE: 95

Item: COc1c(Cl)cc(F)c(-n2c(=O)cc(C(F)(F)F)n(C)c2=O)c1CC(Cl)C(=O)OCCC#N (centres unmarked) [14-29] | Pre-emerge herbicidal activity, phytotoxicity rating AMARE: 20

Item: COCCOC(=O)C(Cl)Cc1c(OC)c(Cl)cc(F)c1-n1c(=O)cc(C(F)(F)F)n(C)c1=O (centres unmarked) [14-25] | Pre-emerge herbicidal activity, phytotoxicity rating AMARE: 100

Item: COc1c(Cl)cc(F)c(-n2c(=O)cc(C(F)(F)F)n(C)c2=O)c1CC(Cl)C(=O)OCC(C)C (single isomer, unassigned) [14-14] | Pre-emerge herbicidal activity, phytotoxicity rating AMARE: 100

###

# System: upland rice (Oryza sp., var. Tebonnet, RICE)
# PROCEDURE_DETAILS: Post-emerge test, crop safety
# Type: in vivo
# CONDITIONS: 250 g ai/ha; post-emerge; 14 days after application; rating scale 0-100
Threshold-based label: Post-emerge Herbicidal Activity RICE (crop damage rating) under 50 gives condition met, Post-emerge Herbicidal Activity RICE (crop damage rating) not under 50 gives condition not met.

IN: Confirm or reject: Post-emerge Herbicidal Activity RICE (crop damage rating) of C#CCOC(=O)C(C)(Cl)Cc1c(OC)c(Cl)cc(F)c1-n1c(=O)cc(C(F)(F)F)n(C)c1=O (stereo not shown) lies strictly below 50
OUT: condition met

IN: Confirm or reject: Post-emerge Herbicidal Activity RICE (crop damage rating) of CCOC(=O)NNc1c(OC)c(Cl)cc(F)c1-n1c(=O)cc(C(F)(F)F)n(C)c1=O lies strictly below 50
OUT: condition not met

IN: Confirm or reject: Post-emerge Herbicidal Activity RICE (crop damage rating) of COc1c(Cl)cc(F)c(-n2c(=O)cc(C(F)(F)F)n(C)c2=O)c1NNC(=O)c1ccc2ccccc2c1 lies strictly below 50
OUT: condition not met

IN: Confirm or reject: Post-emerge Herbicidal Activity RICE (crop damage rating) of CCCOC(=O)C(Cl)Cc1c(OCC)c(Cl)cc(F)c1-n1c(=O)cc(C(F)(F)F)n(C)c1=O (stereo not shown) [14-66] lies strictly below 50
OUT: condition met

IN: Confirm or reject: Post-emerge Herbicidal Activity RICE (crop damage rating) of COCC(C)=NNc1c(OC)c(Cl)cc(F)c1-n1c(=O)cc(C(F)(F)F)n(C)c1=O lies strictly below 50
OUT: condition not met

IN: Confirm or reject: Post-emerge Herbicidal Activity RICE (crop damage rating) of COc1c(Cl)cc(F)c(-n2c(=O)cc(C(F)(F)F)n(C)c2=O)c1SC(C)C lies strictly below 50
OUT: condition met

###

# System: redroot pigweed (Amaranthus retroflexus, AMARE)
# PROCEDURE_DETAILS: Pre-emerge test, greenhouse herbicide activity screening
# Assay type: in vivo
# CONDITIONS: pre-emerge, rate 250 g ai/ha, phytotoxicity rating 0-100 at 14 days after application
Provide the reported Pre-emerge Herbicidal Activity AMARE of each item.
Note: the reply should be a number with no unit written.

Item: Cc1nn(-c2c(F)cc(Cl)cc2NC(=O)c2ccc(F)cc2F)c(=O)n1C(F)F | Pre-emerge Herbicidal Activity AMARE: 100

Item: CC(C)Oc1c(Cl)cc(Cl)c(-n2nnn(CCCF)c2=O)c1N | Pre-emerge Herbicidal Activity AMARE: 0

Item: C#CCOc1c(Cl)cc(Cl)c(-n2nnn(CCCF)c2=O)c1N | Pre-emerge Herbicidal Activity AMARE: 0

Item: COc1c(Cl)cc(F)c(N2C(=O)C3=C(CCCC3)C2=O)c1NC(=O)C=Cc1ccccc1 | Pre-emerge Herbicidal Activity AMARE: 100
